- Test system: MCF7 breast
- assayComment: NCI-60 one-dose screen, 48 h
- testConditions: 10 µM unless noted
Compounds without any hit were thinned out: in the full panel of roughly 83,000, 20% have a hit. Calls of active or inactive are those of the source. How the source made its calls: active means growth percent below 10; inactive means the rest.
The categories you may choose from are true = active, false = inactive

Consider the worked cases shown below.
>  <itemSmiles>
Fc1ccc(N2CC(Cn3c(C(F)(F)F)cc4c(Cl)ncnc43)C2)c(F)c1

>  <assignedClass>
false

$$$$
>  <itemSmiles>
CNc1nc2ccccc2n2c(-c3ccc(O)c(O)c3)cnc12

>  <assignedClass>
true

$$$$
>  <itemSmiles>
Nc1nn2c(-c3cc4cc(Br)ccc4oc3=O)ccnc2c1N=Nc1ccc(Br)cc1

>  <assignedClass>
false

$$$$
>  <itemSmiles>
O=CNc1ccc(-n2cnc3cc(-c4ccc(O)cc4)ccc32)cc1

>  <assignedClass>
false

$$$$

Data request: # outcome recorded in this test, key = COc1ccc2[nH]c(=O)c(CSc3ccccc3Nc3nccc(-c4ccc5c(c4)OCO5)n3)cc2c1
Data returned: false

Numbers sourced from PubChem BioAssay (NCI).
